assay: Cytotoxicity against mouse RAW264.7 cells assessed as inhibition of cell viability at 50 ug/ml after 72 hrs by Cell Titer 96 non-radioactive cell proliferation assay; format: cell-based
// inhibition at 72 h, 50 ug/ml lookup, one value per entry
The answer is to be given in %; state only the numeric part.

Known results for compounds:
# smiles-record, inhibition at 72 h, 50 ug/ml (%)
measured = [
    ("O=S(=O)(c1ccccc1)N1CCN(c2nc3ccccc3c3ccccc23)CC1", 30.7),
    ("O=C(c1ccccn1)N1CCN(c2nc3ccccc3c3ccccc23)CC1", 42.2),
    ("Cc1cc(C)c(S(=O)(=O)N2CCN(c3nc4ccccc4c4ccccc34)CC2)c(C)c1", 26.5),
]

In: Item under review: O=S(=O)(c1ccc(Br)s1)N1CCN(c2nc3ccccc3c3ccccc23)CC1 . Reported inhibition at 72 h, 50 ug/ml?
Out: 42.2

In: Also, O=C(c1ccccc1)N1CCN(c2nc3ccccc3c3ccccc23)CC1 please.
Out: 22.2

In: Also, O=C(c1ccncc1)N1CCN(c2nc3ccccc3c3ccccc23)CC1 please.
Out: 27.9

In: Also, O=S(=O)(c1ccc(Br)cc1)N1CCN(c2nc3ccccc3c3ccccc23)CC1 please.
Out: 28.2

In: Also, CC(C)(C)c1ccc(S(=O)(=O)N2CCN(c3nc4ccccc4c4ccccc34)CC2)cc1 please.
Out: 28.9

In: Also, Cc1cc(S(=O)(=O)N2CCN(c3nc4ccccc4c4ccccc34)CC2)c(C)cc1Cl please.
Out: 34.6
